- System: HEK293
- experiment-notes: Cytotoxic Profiling of Annotated Libraries Using Quantitative High-Throughput Screening (AID 1296008); further: nearly all actives have a fitted effect of over 60% in size; further: potency means the concentration at half of the fitted maximal effect
- condition: Five cell lines viability, CellTiter-Glo ATP luminescence, 48-72 h
Results filed as inconclusive are left out. Calls of active or inactive are those of the source. The call rests on the fitted dose curve; in most records, active means well fitted inhibition curve with a large enough effect; inconclusive means small, poorly fitted or top-dose-only effect; inactive means flat fitted curve, though single readings scatter.
measurement-kind: Potency

| compound | test-target | Potency |
| --- | --- | --- |
| CC1C=CC2CCCCC2C1CCC1CC(O)CC(=O)O1 (centres undefined) | HEK293 | inactive |
| CC(C)CCC(=O)CC1c2ccccc2C(=O)N1c1ccc2ccc(Cl)nc2n1 (centres undefined) | HEK293 | 16.4 µM (active) |
| CCN(CC)CCN(Cc1ccc(-c2ccc(C(F)(F)F)cc2)cc1)C(=O)Cn1c(SCc2ccc(F)cc2)nc(=O)c2c1CCC2 | HEK293 | 3.66 µM (active) |
| C=CC(C)(C)c1[nH]c2cc3c(cc2c1CC1NC(=O)C2CCCN2C1=O)C=CC(C)(C)O3 (centres undefined) | HEK293 | inactive |
| CC(C)(C(=O)NCC(F)(F)C(F)(F)F)C(=O)NC1C(=O)Nc2ccccc2-c2ccccc21 (centres undefined) | HEK293 | 5.8 µM (active) |

Provide each entry's Potency from the list below.
1. CCNC(=O)Nc1ncc(-c2cc(-c3c(C)cc(OC)cc3C)nc(-c3cnccn3)n2)s1
2. Cc1c[nH]c2nccc(Oc3c(F)cc(Nc4cc(Cl)nc(N)n4)cc3F)c12
3. CC1CC2OC3(OC2C(C)(C)O)C1C1(C)CCC24CC25CCC(O[C@@H]2OC[C@@H](O)[C@H](O)[C@H]2O)C(C)(C)C5CC=C4C1(C)C3O (some centres undefined)
4. O=C1C=CC2OC(c3ccccc3)C(O)C2O1 (centres undefined)

[out]
1. inactive
2. 5.8 µM (active)
3. inactive
4. 23.1 µM (active)

* * *

Would you kindly list max response for each of these molecules?
- Test system: HaCat
- experiment-notes: Cytotoxic Profiling of Annotated Libraries Using Quantitative High-Throughput Screening (AID 1296008); further: nearly all actives have a fitted effect of over 60% in size; on max response: on the % scale 0 is the no-effect control and ±100 the full control effect
- condition: Five cell lines viability, CellTiter-Glo ATP luminescence, 48-72 h; active compounds read low
- Procedure: Cell-based phenotypic screening is a commonly used approach to discover biological pathways, novel drug targets, chemical probes and high-quality hit-to-lead molecules. […] A pintool (Kalypsys) was used to transfer 23 nL of compound solution to the 1536-well assay plates. […] Plates were left at room temperature for 10 min before imaging the ATP-coupled luminescence using a ViewLux microplate imager (PerkinElmer, Waltham, MA).
Inconclusive results are not listed.
One number for each entry, in %.

Sample records with max response:
| molecule | test-target | value-units | reading |
| --- | --- | --- | --- |
| COc1ccc2nc(S(=O)(=O)Cc3ncc(C)c(OC)c3C)[nH]c2c1 | HaCat | % | -8.8 |
| C[C@H]1Oc2cc(cnc2N)-c2c(nn(C)c2C#N)CN(C)C(=O)c2ccc(F)cc21 | HaCat | % | -103 |
| O=C(O)COCCN1CCN([C@H](c2ccccc2)c2ccc(Cl)cc2)CC1 | HaCat | % | -30.6 |

Provide each entry's max response from the list below.
1. O=C(O)C(O[C@@H]1O[C@H](CO[C@@H]2O[C@H](CO)[C@@H](O)[C@H](O)[C@H]2O)[C@@H](O)[C@H](O)[C@H]1O)c1ccccc1 (some centres undefined)
2. CCc1cc(CN2CC(C(=O)O)C2)sc1-c1noc(-c2ccc(Oc3ccccc3)cc2)n1
3. Cc1cc(O)cc(O[C@@H]2O[C@H](CO)[C@@H](O)[C@H](O)[C@H]2O)c1
4. CC(=O)c1cc2c(cc1O)OC(C)(C)C=C2
5. C[C@@H]1CCC2C(C)(C)[C@H](O)CC[C@]2(C)[C@@]12Cc1c(O)cc3c(c1O2)CNC3=O (some centres undefined)
6. C=CC(C)(O)CC/C=C(\C)C(=O)OC1C(O)C(CO)OC(OC(=O)C23CCC(C)(C)CC2C2=CCC4C5(C)CCC(OC6OC(COC7OCC(OC(C)=O)C(O)C7OC7OC(COC(C)=O)C(O)C(O)C7O)C(O)C(O)C6O)C(C)(C)C5CCC4(C)C2(C)C(O)C3O)C1OC1OCC(OC2OCC(O)C(OC3OCC(O)C(O)C3O)C2O)C(O)C1O (centres undefined)
7. CC(=O)N[C@@H](CCCCN)C(=O)N(C)[C@@H](CC(C)C)C(=O)N[C@H](C(=O)N(C)[C@@H](Cc1ccccc1)C(=O)N[C@H](Cc1ccccc1)C(N)=O)C(C)C
8. CCCCc1ccc(C(=O)Nc2cc(-c3ccc(Cl)cc3)nn2-c2ccc(Cl)cc2)cc1

[out]
1. -3.34
2. -26.8
3. -10.5
4. -16.3
5. -68.6
6. -19.8
7. -11.8
8. -3.42

Provide each entry's max response from the list below.
1. CC(=O)O[C@H]1C[C@@](O)(C(C)C)C2[C@@H](OC(=O)c3ccc(O)cc3)C[C@@]3(C)O[C@H]3C[C@]21C (some centres undefined)
2. CC(=O)OC[C@]12[C@H](OC(C)=O)C(=O)[C@@H]3[C@@H](OC(C)=O)[C@@]14O[C@@]3(C)COC(=O)c1cccnc1[C@@H](C)[C@H](C)C(=O)O[C@@H]([C@H](O)[C@@H]2OC(C)=O)[C@]4(C)O
3. COc1ccc(C2(O)CCC(N3CC[C@@H](NC(=O)CNC(=O)c4cccc(C(F)(F)F)c4)C3)CC2)cn1 (some centres undefined)
4. C=CC/C=C\C/C=C\CCCCCCCc1cccc(O)c1C(=O)O
5. CC1(C(=O)O)CCCC2(C)C3=CCC4CC3(CCC12)CC4CO (centres undefined)

[out]
[-5.18, -0.606, 0.0677, 3.56, 2.08]

Provide each entry's max response from the list below.
1. Cn1nnc(-c2ccc(-c3ccc(N4C[C@H](COP(=O)(O)O)OC4=O)cc3F)cn2)n1
2. CNCc1ccc(-c2cc(-c3nc(-c4ccc(S(=O)(=O)C(C)C)cc4)cnc3N)on2)cc1
3. C[C@H]1CC[C@@]2(OC1)O[C@H]1CC3C4CC[C@H]5C[C@@H](O)[C@H](O)C[C@]5(C)C4=CC(=O)[C@]3(C)[C@H]1[C@@H]2C (some centres undefined)
4. CC(=O)NC1C(OC(C)(C)C2CCC3(C)C=C(C4CCC5C4(C)CC(O)C4OC(C(C)(C)O)CCC45C)CCC3O2)OC(CO)C(O)C1O (centres undefined)
5. C[C@H](O)[C@H](O)/C=C/c1cccc(O)c1CO
6. OC[C@H]1O[C@@H](OCCc2ccc(O)cc2)[C@H](O[C@@H]2OC[C@](O)(CO)[C@H]2O)[C@@H](O)[C@@H]1O
7. C[C@@H]1CC[C@]2(C(=O)O)CC[C@]3(C)C(=CCC4[C@@]5(C)C[C@@H](O)[C@H](O)[C@@](C)(CO)C5CC[C@]43C)C2[C@]1(C)O (some centres undefined)

[out]
1. 0.171
2. -11.6
3. -0.134
4. 3.68
5. -3.13
6. 1.3
7. 4.14

Recorded values, source PubChem BioAssay (NCATS).
